Assay: Solubility study, 24 hour (HPLC of filtrate, XRPD of remaining solids)
Type: physicochemical
Details: EtOH, organic solvent or mixture, thermodynamic from solid, room temperature
Protocol: 9-ING-41, either Form I or Form II, was added to 1 mL of each of 10 different solvents in a vial to make a suspension. The samples were shaken at 2000 rpm in a shaker at room temperature for 24 hours. Mixtures were visually examined to ensure saturation. After 24 hours, 1 mL of suspension was filtered through a 0.45 um nylon micro-filtration membrane into another clear glass vial, respectively. The filtrate was analyzed by HPLC and the remaining solids were analyzed using XRPD.
Endpoint Label: solubility at 24 h (µg/mL)
All answers are understood in µg/mL, so give the number only.

The value of solubility at 24 h measured for the molecule Cn1cc(C2=C(c3coc4ccc(F)cc34)C(=O)NC2=O)c2cc3c(cc21)OCO3 [Form I] turned out to be 1270

---

assay: Solubility study, 1 hour (Form II added to Form I-saturated filtrates); format: physicochemical; settings: organic solvent or mixture, thermodynamic from solid; EtOH; Form I suspension shaken 24 hours, room temperature
Endpoint Label: solubility at 24 h (µg/mL)
API: value field is a number in µg/mL; no unit string.

Field solubility at 24 h (entry Cn1cc(C2=C(c3coc4ccc(F)cc34)C(=O)NC2=O)c2cc3c(cc21)OCO3 [Form I] ) reads 1260

---

assay: Solubility study, 24 hour (HPLC of filtrate, XRPD of remaining solids); format: physicochemical; conditions: dimethyl acetamide, organic solvent or mixture, thermodynamic from solid, room temperature
Endpoint Label: solubility at 24 h

// sample Cn1cc(C2=C(c3coc4ccc(F)cc34)C(=O)NC2=O)c2cc3c(cc21)OCO3 [Form I] , its solubility at 24 h was > 100 mg/mL

---

assay: Solubility study, 1 hour (Form II added to Form I-saturated filtrates); format: physicochemical; settings: organic solvent or mixture, thermodynamic from solid; Benzyl Benzoate; Form I suspension shaken 24 hours, room temperature
Endpoint Label: solubility at 24 h
Give the number first and the unit second.

The value of solubility at 24 h measured for the molecule Cn1cc(C2=C(c3coc4ccc(F)cc34)C(=O)NC2=O)c2cc3c(cc21)OCO3 [Form I] turned out to be 48.3 mg/mL

---

test: Solubility study, 24 hour (HPLC of filtrate, XRPD of remaining solids); type: physicochemical; conditions: PEG400, organic solvent or mixture, thermodynamic from solid, PEG400, room temperature
Endpoint Label: solubility at 24 h (mg/mL)
Enter your answer as a number in mg/mL; do not include the unit.

The recorded solubility at 24 h for Cn1cc(C2=C(c3coc4ccc(F)cc34)C(=O)NC2=O)c2cc3c(cc21)OCO3 [Form I] is 96.5

---

assay: Solubility study, 1 hour (Form II added to Form I-saturated filtrates); type: physicochemical; conditions: organic solvent or mixture, thermodynamic from solid; PEG400:Tween80:EtOH (75:8:17); Form I suspension shaken 24 hours, room temperature
Endpoint Label: solubility at 24 h (mg/mL)
All answers are understood in mg/mL, so give the number only.

Value of solubility at 24 h reported for the molecule Cn1cc(C2=C(c3coc4ccc(F)cc34)C(=O)NC2=O)c2cc3c(cc21)OCO3 [Form I] is 73.4

---

assay: Solubility study, 24 hour (HPLC of filtrate, XRPD of remaining solids); assay type: physicochemical; conditions: Labrasol, oil or lipid, thermodynamic from solid, room temperature
Endpoint Label: solubility at 24 h (mg/mL)
Record the value in mg/mL, omitting the unit from your answer.

Short answer for Cn1cc(C2=C(c3coc4ccc(F)cc34)C(=O)NC2=O)c2cc3c(cc21)OCO3 [Form I] : solubility at 24 h was 60.5

---

assay: Solubility study, 1 hour (Form II added to Form I-saturated filtrates); assay type: physicochemical; settings: organic solvent or mixture, thermodynamic from solid; PEG400:Tween80:EtOH (75:8:17); excess Form II added to Form I-saturated filtrate, shaken 1 hour
Endpoint Label: solubility at 1 h (mg/mL)
Give just the numeric value; mg/mL need not be written.

Reported solubility at 1 h of Cn1cc(C2=C(c3coc4ccc(F)cc34)C(=O)NC2=O)c2cc3c(cc21)OCO3 [Form II] : 106

---

assay: Solubility study, 1 hour (Form II added to Form I-saturated filtrates); format: physicochemical; settings: filtrate saturated with Form I, oil or lipid, thermodynamic from solid; Labrasol; excess Form II added to Form I-saturated filtrate, shaken 1 hour
Endpoint Label: solubility at 1 h (mg/mL)
Just the number in mg/mL, nothing appended.

solubility at 1 h recorded for this compound, Cn1cc(C2=C(c3coc4ccc(F)cc34)C(=O)NC2=O)c2cc3c(cc21)OCO3 [Form II] , is 87

---

assay: Solubility study, 1 hour (Form II added to Form I-saturated filtrates); type: physicochemical; conditions: organic solvent or mixture, thermodynamic from solid; Benzyl Alcohol; Form I suspension shaken 24 hours, room temperature
Endpoint Label: solubility at 24 h (mg/mL)
The figure you give is taken to be in mg/mL; do not add the unit.

Kindly note the recorded solubility at 24 h for Cn1cc(C2=C(c3coc4ccc(F)cc34)C(=O)NC2=O)c2cc3c(cc21)OCO3 [Form I] , which is 22.3

---

Test: Solubility study, 24 hour (HPLC of filtrate, XRPD of remaining solids)
Format: physicochemical
Settings: benzyl alcohol, organic solvent or mixture, thermodynamic from solid, room temperature
Method: 9-ING-41, either Form I or Form II, was added to 1 mL of each of 10 different solvents in a vial to make a suspension. The samples were shaken at 2000 rpm in a shaker at room temperature for 24 hours. Mixtures were visually examined to ensure saturation. After 24 hours, 1 mL of suspension was filtered through a 0.45 um nylon micro-filtration membrane into another clear glass vial, respectively. The filtrate was analyzed by HPLC and the remaining solids were analyzed using XRPD.
Endpoint Label: solubility at 24 h (mg/mL)
Record the value in mg/mL, omitting the unit from your answer.

solubility at 24 h measured on Cn1cc(C2=C(c3coc4ccc(F)cc34)C(=O)NC2=O)c2cc3c(cc21)OCO3 [Form I] = 24

---

assay: Solubility study, 1 hour (Form II added to Form I-saturated filtrates); assay type: physicochemical; settings: filtrate saturated with Form I, organic solvent or mixture, thermodynamic from solid; Benzyl Alcohol; excess Form II added to Form I-saturated filtrate, shaken 1 hour
Endpoint Label: solubility at 1 h
The answer should read as a number with its unit following.

# solubility at 1 h (compound: Cn1cc(C2=C(c3coc4ccc(F)cc34)C(=O)NC2=O)c2cc3c(cc21)OCO3 [Form II] ) is 39.9 mg/mL

---

experiment: Solubility study, 24 hour (HPLC of filtrate, XRPD of remaining solids); format: physicochemical; settings: PEG300:BzOH:Water (65:10:25), aqueous with cosolvent or surfactant or cyclodextrin, thermodynamic from solid, PEG300:BzOH:Water (65:10:25), room temperature
Endpoint Label: solubility at 24 h (mg/mL)
Numbers only; they are read as mg/mL.

solubility at 24 h measured on Cn1cc(C2=C(c3coc4ccc(F)cc34)C(=O)NC2=O)c2cc3c(cc21)OCO3 [Form I] = 5.09

---

experiment: Solubility study, 1 hour (Form II added to Form I-saturated filtrates); assay type: physicochemical; settings: filtrate saturated with Form I, organic solvent or mixture, thermodynamic from solid; EtOH; excess Form II added to Form I-saturated filtrate, shaken 1 hour
Endpoint Label: solubility at 1 h (µg/mL)
Numeric only. Scale: µg/mL

Query Cn1cc(C2=C(c3coc4ccc(F)cc34)C(=O)NC2=O)c2cc3c(cc21)OCO3 [Form II] yields solubility at 1 h of 2550
